Experiment: Oral bioavailability studies in dogs (plasma concentration by bioassay)
Format: in vivo
Details: dog, plasma, iv, 1 mg/kg, IV at 1 mg/kg, 6 hr, individual animals, read-out: Estimated Plasma Concentration

# compound, concentration at 6 h (ng/mL)
data = [
    ("C#CC[C@H](NC(=O)C(CC(=O)N(C)CCN(C)C)Cc1ccccc1)C(=O)NC(CC1CCCCC1)[C@@H](O)C(O)CC(C)C (relative stereo)", 10.1),
]

====

Test: Oral bioavailability studies in dogs (plasma concentration by bioassay)
Format: in vivo
Settings: dog, plasma, iv, 1 mg/kg, IV at 1 mg/kg, 8 hr, read-out: Estimated Plasma Concentration, Mean ± SE
recorded_endpoint: concentration at 8 h (ng/mL)

# compound, result_number
measured = [
    ("C#CC[C@H](NC(=O)C(CC(=O)N(C)CCN(C)C)Cc1ccccc1)C(=O)NC(CC1CCCCC1)[C@@H](O)C(O)CC(C)C (relative stereo)", 5.8),
]

====

Assay: Oral bioavailability studies in dogs (plasma concentration by bioassay)
Format: in vivo
Details: dog, plasma, individual animals, read-out: Vd

# compound, Vd
records = [
    ("C#CC[C@H](NC(=O)C(CC(=O)N(C)CCN(C)C)Cc1ccccc1)C(=O)NC(CC1CCCCC1)[C@@H](O)C(O)CC(C)C (relative stereo)", "11.5 L/kg"),
]

====

Assay: Oral bioavailability studies in marmosets (plasma concentration by bioassay)
Type: in vivo
Conditions: marmoset, plasma, iv, 1 mg/kg, marmoset, IV at 1 mg/kg, 3 hr; Test Run D table; read-out: Plasma Concentrations, Mean ± SE

# compound, u, concentration at 3 h
records = [
    ("C#CC[C@H](NC(=O)C(CC(=O)N(C)CCN(C)C)Cc1ccccc1)C(=O)NC(CC1CCCCC1)[C@@H](O)C(O)CC(C)C (relative stereo) [Example 1]", "ng/mL", 578),
]

====

Assay: Oral bioavailability studies in dogs (plasma concentration by bioassay)
Assay type: in vivo
Settings: dog, plasma, iv, 1 mg/kg, IV at 1 mg/kg, 15 min, read-out: Estimated Plasma Concentration, Mean ± SE

# molecule, concentration at 15 min / ng/mL
data = [
    ("C#CC[C@H](NC(=O)C(CC(=O)N(C)CCN(C)C)Cc1ccccc1)C(=O)NC(CC1CCCCC1)[C@@H](O)C(O)CC(C)C (relative stereo)", 170),
]

====

Test: Oral bioavailability studies in dogs (plasma concentration by bioassay)
Assay type: in vivo
Settings: dog, plasma, oral, 10 mg/kg, IG at 10 mg/kg, 1 hr, individual animals, read-out: Estimated Plasma Concentration
Method: The bioavailability in marmosets and dogs was determined by sampling the blood via the femoral vein at various time points after administering the renin inhibitor compounds of the invention in polyethylene glycol 400 at an intragastric dose of 10 mg/kg or at an intravenous dose of 1 mg/kg. […] Renin inhibitor plasma concentrations were determined by a bioassay. […] The renin activity was determined by a standard angiotensin I radioimmunoassay (New England Nuclear Corp.). […]
recorded_endpoint: concentration at 1 h (ng/mL)

# molecule, u, result_number
rows = [
    ("C#CC[C@H](NC(=O)C(CC(=O)N(C)CCN(C)C)Cc1ccccc1)C(=O)NC(CC1CCCCC1)[C@@H](O)C(O)CC(C)C (relative stereo) [Example 1]", "ng/mL", 678),
]

====

Assay: Oral bioavailability studies in dogs (plasma concentration by bioassay)
Format: in vivo
Details: dog, plasma, iv, 1 mg/kg, IV at 1 mg/kg, 5 min, read-out: Estimated Plasma Concentration, Mean ± SE
recorded_endpoint: concentration at 5 min (ng/mL)

# compound, result_number
rows = [
    ("C#CC[C@H](NC(=O)C(CC(=O)N(C)CCN(C)C)Cc1ccccc1)C(=O)NC(CC1CCCCC1)[C@@H](O)C(O)CC(C)C (relative stereo)", 605),
]

====

Assay: Oral bioavailability studies in marmosets (plasma concentration by bioassay)
Type: in vivo
Conditions: marmoset, plasma, iv, 1 mg/kg, marmoset, IV at 1 mg/kg, Test Run D, 2 hr, individual animals; read-out: Plasma Concentrations
recorded_endpoint: concentration at 2 h (ng/mL)

# molecule, result_number
measured = [
    ("C#CC[C@H](NC(=O)C(CC(=O)N(C)CCN(C)C)Cc1ccccc1)C(=O)NC(CC1CCCCC1)[C@@H](O)C(O)CC(C)C (relative stereo)", 554),
]

====

Experiment: Oral bioavailability studies in marmosets (plasma concentration by bioassay)
Type: in vivo
Settings: marmoset, plasma, iv, 1 mg/kg, marmoset, IV at 1 mg/kg, Test Run D, 30 min, individual animals; read-out: Plasma Concentrations

# compound, concentration at 30 min
rows = [
    ("C#CC[C@H](NC(=O)C(CC(=O)N(C)CCN(C)C)Cc1ccccc1)C(=O)NC(CC1CCCCC1)[C@@H](O)C(O)CC(C)C (relative stereo)", "1.95 µg/mL"),
]

====

Biological target: human renin (Homo sapiens, UniProt P00797)
Construct: purchased National Institute for Biological Standards, London
Sequence (P00797 67-406): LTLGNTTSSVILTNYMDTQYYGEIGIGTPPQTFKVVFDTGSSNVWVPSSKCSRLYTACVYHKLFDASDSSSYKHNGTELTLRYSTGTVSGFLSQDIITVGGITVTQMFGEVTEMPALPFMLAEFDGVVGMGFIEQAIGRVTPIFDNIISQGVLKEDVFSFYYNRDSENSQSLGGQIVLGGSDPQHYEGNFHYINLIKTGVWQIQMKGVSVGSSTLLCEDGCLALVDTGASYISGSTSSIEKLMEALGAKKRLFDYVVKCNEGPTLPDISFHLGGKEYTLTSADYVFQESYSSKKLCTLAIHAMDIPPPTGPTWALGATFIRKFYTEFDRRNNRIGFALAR
Assay: Human renin inhibition in vitro
Format: biochemical
pIC50: −log10 of the molar value.
recorded_endpoint: pIC50

# compound, result_number
rows = [
    ("C#CCC(NC(=O)C(Cc1ccccc1)OC(=O)N(C)CCN(C)C)C(=O)NC(CC1CCCCC1)[C@@H](O)C(O)CC(C)C (stereo in doubt)", 8.52),
]

====

Experiment: Oral bioavailability studies in dogs (plasma concentration by bioassay)
Type: in vivo
Details: dog, plasma, read-out: Vd, Mean ± SE
recorded_endpoint: Vd

# compound, recorded_endpoint, result
rows = [
    ("C#CC[C@H](NC(=O)C(CC(=O)N(C)CCN(C)C)Cc1ccccc1)C(=O)NC(CC1CCCCC1)[C@@H](O)C(O)CC(C)C (relative stereo) [Example 1]", "Vd", "9.5 L/kg"),
]

====

Experiment: Oral bioavailability studies in marmosets (plasma concentration by bioassay)
Type: in vivo
Conditions: marmoset, plasma, iv, 1 mg/kg, marmoset, IV at 1 mg/kg, Test Run C, 3 hr, individual animals; read-out: Plasma Concentrations

# compound, concentration at 3 h / ng/mL
data = [
    ("C#CC[C@H](NC(=O)C(CC(=O)N(C)CCN(C)C)Cc1ccccc1)C(=O)NC(CC1CCCCC1)[C@@H](O)C(O)CC(C)C (relative stereo)", 486),
]

====

Test: Oral bioavailability studies in dogs (plasma concentration by bioassay)
Assay type: in vivo
Conditions: dog, plasma, iv, 1 mg/kg, IV at 1 mg/kg, 24 hr, read-out: Estimated Plasma Concentration, Mean ± SE
recorded_endpoint: concentration at 24 h (ng/mL)

# compound, u, result_number
data = [
    ("C#CC[C@H](NC(=O)C(CC(=O)N(C)CCN(C)C)Cc1ccccc1)C(=O)NC(CC1CCCCC1)[C@@H](O)C(O)CC(C)C (relative stereo)", "ng/mL", 1.8),
]

====

Test: Oral bioavailability studies in dogs (plasma concentration by bioassay)
Format: in vivo
Settings: dog, plasma, oral, 10 mg/kg, IG at 10 mg/kg, 6 hr, individual animals, read-out: Estimated Plasma Concentration
recorded_endpoint: concentration at 6 h (ng/mL)

# compound, result_number
records = [
    ("C#CC[C@H](NC(=O)C(CC(=O)N(C)CCN(C)C)Cc1ccccc1)C(=O)NC(CC1CCCCC1)[C@@H](O)C(O)CC(C)C (relative stereo) [Example 1]", 66.9),
]

====

Assay: Oral bioavailability studies in dogs (plasma concentration by bioassay)
Format: in vivo
Details: dog, plasma, oral, 10 mg/kg, IG at 10 mg/kg, 8 hr, read-out: Estimated Plasma Concentration, Mean ± SE

# molecule, concentration at 8 h [ng/mL]
measured = [
    ("C#CC[C@H](NC(=O)C(CC(=O)N(C)CCN(C)C)Cc1ccccc1)C(=O)NC(CC1CCCCC1)[C@@H](O)C(O)CC(C)C (relative stereo) [Example 1]", 34.8),
]

====

Experiment: Oral bioavailability studies in dogs (plasma concentration by bioassay)
Assay type: in vivo
Conditions: dog, plasma, iv, 1 mg/kg, IV at 1 mg/kg, 1 hr, read-out: Estimated Plasma Concentration, Mean ± SE
Experimental: The bioavailability in marmosets and dogs was determined by sampling the blood via the femoral vein at various time points after administering the renin inhibitor compounds of the invention in polyethylene glycol 400 at an intragastric dose of 10 mg/kg or at an intravenous dose of 1 mg/kg. […] Renin inhibitor plasma concentrations were determined by a bioassay. […] The renin activity was determined by a standard angiotensin I radioimmunoassay (New England Nuclear Corp.). […]

# compound, concentration at 1 h / ng/mL
rows = [
    ("C#CC[C@H](NC(=O)C(CC(=O)N(C)CCN(C)C)Cc1ccccc1)C(=O)NC(CC1CCCCC1)[C@@H](O)C(O)CC(C)C (relative stereo)", 62.7),
]

====

Test: Oral bioavailability studies in dogs (plasma concentration by bioassay)
Assay type: in vivo
Conditions: dog, plasma, oral, 10 mg/kg, IG at 10 mg/kg, 4 hr, read-out: Estimated Plasma Concentration, Mean ± SE
recorded_endpoint: concentration at 4 h (ng/mL)

# compound, u, result_number
records = [
    ("C#CC[C@H](NC(=O)C(CC(=O)N(C)CCN(C)C)Cc1ccccc1)C(=O)NC(CC1CCCCC1)[C@@H](O)C(O)CC(C)C (relative stereo)", "ng/mL", 110),
]
